# Target Desc: T1, purified recombinant IFNAR-1 extracellular fragment (human, UniProt P17181 28-436)
# T1 construct: extracellular domain; also called soluble IFNAR-1; soluble IFNAR
# T1 sequence (looked up): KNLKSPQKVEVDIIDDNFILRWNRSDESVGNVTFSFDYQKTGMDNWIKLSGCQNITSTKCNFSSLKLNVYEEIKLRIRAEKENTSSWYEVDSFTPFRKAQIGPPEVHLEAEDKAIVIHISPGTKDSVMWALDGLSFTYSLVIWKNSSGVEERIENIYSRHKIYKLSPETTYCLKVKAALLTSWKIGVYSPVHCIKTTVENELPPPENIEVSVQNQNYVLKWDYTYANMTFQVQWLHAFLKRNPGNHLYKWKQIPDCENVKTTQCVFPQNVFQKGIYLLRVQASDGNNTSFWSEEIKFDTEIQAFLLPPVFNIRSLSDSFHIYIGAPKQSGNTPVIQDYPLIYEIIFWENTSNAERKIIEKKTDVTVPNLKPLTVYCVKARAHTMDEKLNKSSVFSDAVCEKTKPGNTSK
# Assay Name: Biacore, response on IFNAR-1 (flow cell 2) divided by response on anti-human IgG Fc (flow cell 4)
# label = Met if Fc2/Fc4 < 0.3 else Not met

{"Binder": "M3-A heavy chain with K1 light chain (antibody, human IgG4, V domains shown, also called M3-A K1) VH: EVQLLESGGGLVQPGGSLRLSCAFSGFTLSTSGAGIGWVRQAPGKGLEWVAHIWWDDDKYYNPSLKSRFTISRDTSKNTVYLQMNSLRAEDTAVYYCARNYYPYDAWFDYWGQGTLVTVS VL: DIQMTQSPSSLSASVGDRVTITCSASSSINSNHLHWYQQKPGKAPKLLIYRTSILASGVPSRFSGSGSGTSFTLTISSLQPEDFATYYCQQGSNIPFTFGQGTKVEIKR", "Group": "Met"}
{"Binder": "M3 heavy chain with K1-CDE light chain (antibody, human IgG4, V domains shown, also called M3 K1-C/D/E) VH: EVQLLESGGGLVQPGGSLRLSCAFSGFTLSTSGMGIGWVRQAPGKGLEWVAHIWWDDDKYYNPSLKSRFTISRDTSKNTVYLQMNSLRAEDTAVYYCARNYYPYDAWFDYWGQGTLVTVS VL: DIQMTQSPSSLSASVGDRVTITCSASTSINSNHLNWYQQKPGKAPKLLIYRTSILASGVPSRFSGSGSGTSFTLTISSLQPEDFATYYCQQTSNIPFTFGQGTKVEIKR", "Group": "Met"}
{"Binder": "M3-B heavy chain with K1 light chain (antibody, human IgG4, V domains shown, also called M3-B K1) VH: EVQLLESGGGLVQPGGSLRLSCAFSGFTLSTSGMGIGWVRQAPGKGLEWVAHIWWDDDKYYNPSLKARFTISRDTSKNTVYLQMNSLRAEDTAVYYCARNYYPYDAWFDYWGQGTLVTVS VL: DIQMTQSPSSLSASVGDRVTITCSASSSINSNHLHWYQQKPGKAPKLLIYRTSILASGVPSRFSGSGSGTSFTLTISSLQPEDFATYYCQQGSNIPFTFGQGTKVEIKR", "Group": "Not met"}
{"Binder": "M3 heavy chain with K1-E light chain (antibody, human IgG4, V domains shown, also called M3 K1-E) VH: EVQLLESGGGLVQPGGSLRLSCAFSGFTLSTSGMGIGWVRQAPGKGLEWVAHIWWDDDKYYNPSLKSRFTISRDTSKNTVYLQMNSLRAEDTAVYYCARNYYPYDAWFDYWGQGTLVTVS VL: DIQMTQSPSSLSASVGDRVTITCSASSSINSNHLHWYQQKPGKAPKLLIYRTSILASGVPSRFSGSGSGTSFTLTISSLQPEDFATYYCQQTSNIPFTFGQGTKVEIKR", "Group": "Met"}
{"Binder": "M3-AB heavy chain with K1-CD light chain (antibody, human IgG4, V domains shown, also called M3-A/B K1-C/D) VH: EVQLLESGGGLVQPGGSLRLSCAFSGFTLSTSGAGIGWVRQAPGKGLEWVAHIWWDDDKYYNPSLKARFTISRDTSKNTVYLQMNSLRAEDTAVYYCARNYYPYDAWFDYWGQGTLVTVS VL: DIQMTQSPSSLSASVGDRVTITCSASTSINSNHLNWYQQKPGKAPKLLIYRTSILASGVPSRFSGSGSGTSFTLTISSLQPEDFATYYCQQGSNIPFTFGQGTKVEIKR", "Group": "Met"}
{"Binder": "M3-AB heavy chain with K1 light chain (antibody, human IgG4, V domains shown, also called M3-A/B K1) VH: EVQLLESGGGLVQPGGSLRLSCAFSGFTLSTSGAGIGWVRQAPGKGLEWVAHIWWDDDKYYNPSLKARFTISRDTSKNTVYLQMNSLRAEDTAVYYCARNYYPYDAWFDYWGQGTLVTVS VL: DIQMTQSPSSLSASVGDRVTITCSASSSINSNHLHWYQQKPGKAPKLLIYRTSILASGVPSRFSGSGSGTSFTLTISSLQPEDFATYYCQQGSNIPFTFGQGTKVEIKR", "Group": "Met"}
{"Binder": "DI M3 heavy chain with K1 light chain (antibody, human IgG4, V domains shown, also called DI M3 K1) VH: EVQLLESGGGLVQPGGSLRLSCAASGFTMSTSGMGIGWIRQTPGKGLEWVAHIWWDDDKYYNPSLKSRFTISKDTSKNTLYLQMNSLRAEDTAVYYCARNYYPYDAWFDYWGQGTLVTVS VL: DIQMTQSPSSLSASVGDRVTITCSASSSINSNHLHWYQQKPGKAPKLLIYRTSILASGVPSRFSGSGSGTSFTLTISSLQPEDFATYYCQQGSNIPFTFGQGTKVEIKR", "Group": "Not met"}
